RAC for assorted compounds
target or system: Estrogen receptor (Homo sapiens, UniProt Q92731+P03372)

Look over these answered cases.
query: Could you share what RAC was measured for C[C@]12C[C@H](CCCCNC(=O)CBr)[C@@H]3c4ccc(O)cc4CC[C@H]3[C@@H]1CC[C@@H]2O , tested on Estrogen receptor (Homo sapiens, UniProt Q92731+P03372)?
result: 1.64

query: Could you share what RAC was measured for C=CCC[C@H]1C[C@]2(C)[C@@H](O)CC[C@H]2[C@@H]2CCc3cc(O)ccc3[C@@H]12 , tested on Estrogen receptor (Homo sapiens, UniProt Q92731+P03372)?
result: 38.6

query: Could you share what RAC was measured for Cc1ccc(S(=O)(=O)OCCCCCCCCCC[C@H]2C[C@]3(C)[C@@H](O)CC[C@H]3[C@@H]3CCc4cc(O)ccc4[C@@H]23)cc1 , tested on Estrogen receptor (Homo sapiens, UniProt Q92731+P03372)?
result: 2.59

New cases:
query: Could you share what RAC was measured for C[C@]12C[C@H](CCCCOS(C)(=O)=O)[C@@H]3c4ccc(O)cc4CC[C@H]3[C@@H]1CC[C@@H]2O , tested on Estrogen receptor (Homo sapiens, UniProt Q92731+P03372)?
result: 36.8

query: Could you share what RAC was measured for C[C@]12C[C@H](CCNC(=O)CBr)[C@@H]3c4ccc(O)cc4CC[C@H]3[C@@H]1CC[C@@H]2O , tested on Estrogen receptor (Homo sapiens, UniProt Q92731+P03372)?
result: 0.38

query: Could you share what RAC was measured for C[C@]12C[C@H](CCCCBr)[C@@H]3c4ccc(O)cc4CC[C@H]3[C@@H]1CC[C@@H]2O , tested on Estrogen receptor (Homo sapiens, UniProt Q92731+P03372)?
result: 11

query: Could you share what RAC was measured for C[C@]12C[C@H](CCOS(C)(=O)=O)[C@@H]3c4ccc(O)cc4CC[C@H]3[C@@H]1CC[C@@H]2O , tested on Estrogen receptor (Homo sapiens, UniProt Q92731+P03372)?
result: 8.15

###

target or system: Estrogen receptor (Homo sapiens, UniProt Q92731+P03372)
assay comment: Compound concentration required to induce transcriptional activation in MVLN cells equal to 50% of 0.1 nM estradiol response
Assay type: functional, cell-based
parameter measured: IC50 (nM)
Note: unit nM is implicit; provide only the numeric part.

Look over these answered cases.
query: So what's the measured IC50 for this one? C[C@]12C[C@H](CCCCNC(=O)CBr)[C@@H]3c4ccc(O)cc4CC[C@H]3[C@@H]1CC[C@@H]2O
result: 320

query: So what's the measured IC50 for this one? C[C@]12C[C@H](CCCCOS(C)(=O)=O)[C@@H]3c4ccc(O)cc4CC[C@H]3[C@@H]1CC[C@@H]2O
result: 6

query: So what's the measured IC50 for this one? C[C@]12C[C@H](CCCCBr)[C@@H]3c4ccc(O)cc4CC[C@H]3[C@@H]1CC[C@@H]2O
result: 3

New cases:
query: So what's the measured IC50 for this one? Cc1ccc(S(=O)(=O)OCCCCCCCCCC[C@H]2C[C@]3(C)[C@@H](O)CC[C@H]3[C@@H]3CCc4cc(O)ccc4[C@@H]23)cc1
result: 4
